- experimental-target: cPLA2α (Homo sapiens)
- Sequence (P47712 1-749): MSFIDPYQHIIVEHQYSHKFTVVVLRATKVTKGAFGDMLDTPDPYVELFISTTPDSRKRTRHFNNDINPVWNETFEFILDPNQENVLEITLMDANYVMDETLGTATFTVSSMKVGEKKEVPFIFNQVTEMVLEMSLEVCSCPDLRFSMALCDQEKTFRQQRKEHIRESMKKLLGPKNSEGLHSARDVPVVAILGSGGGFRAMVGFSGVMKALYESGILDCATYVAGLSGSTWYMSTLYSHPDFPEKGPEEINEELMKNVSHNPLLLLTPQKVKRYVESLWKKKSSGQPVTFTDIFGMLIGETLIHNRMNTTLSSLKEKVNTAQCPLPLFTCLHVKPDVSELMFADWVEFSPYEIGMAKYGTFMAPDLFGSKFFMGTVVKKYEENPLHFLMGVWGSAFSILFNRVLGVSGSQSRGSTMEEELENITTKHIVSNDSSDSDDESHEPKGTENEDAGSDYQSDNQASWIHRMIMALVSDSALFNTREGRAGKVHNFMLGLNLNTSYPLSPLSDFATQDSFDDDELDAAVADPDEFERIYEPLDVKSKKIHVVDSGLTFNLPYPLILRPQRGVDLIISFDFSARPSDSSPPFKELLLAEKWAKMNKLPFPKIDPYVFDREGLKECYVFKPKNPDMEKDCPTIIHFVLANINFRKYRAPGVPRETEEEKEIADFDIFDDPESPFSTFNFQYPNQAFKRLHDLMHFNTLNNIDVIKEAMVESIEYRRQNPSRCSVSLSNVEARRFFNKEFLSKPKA
quantity-kind: pIC50
Keep in mind that pIC50 stands for -log10 of concentration in molar terms.

Observe how each entry below is paired with its result.
{"compound": "O=C(O)c1ccc(CCCc2c(CCNS(=O)(=O)Cc3c(Cl)cccc3Cl)n(C(c3ccccc3)c3ccccc3)c3ccc(Cl)cc23)cc1 [Example 8]", "pIC50": 7.62}
{"compound": "O=C(O)c1ccc(CCCc2c(CCNS(=O)(=O)Cc3ccccc3-c3cccnc3)n(C(c3ccccc3)c3ccccc3)c3ccc(Cl)cc23)cc1 [Example 31]", "pIC50": 7.80}
{"compound": "O=C(O)c1ccc(OCCc2c(CCNS(=O)(=O)Cc3ccccc3O)n(C(c3ccccc3)c3ccccc3)c3ccc(Cl)cc23)cc1 [Example 2]", "pIC50": 6.72}
{"compound": "O=C(O)c1ccc(CCCc2c(CCNS(=O)(=O)CCc3ccccc3C(F)(F)F)n(C(c3ccccc3)c3ccccc3)c3ccc(Cl)cc23)cc1 [Example 15]", "pIC50": 7.17}
{"compound": "O=C(O)c1ccc(CCCc2c(CCNS(=O)(=O)Cc3c(C(F)(F)F)cccc3C(F)(F)F)n(C(c3ccccc3)c3ccccc3)c3ccc(Cl)cc23)cc1 [Example 12]", "pIC50": 7.68}

Next compound, pIC50 to be filled in.
Consider O=C(O)c1ccc(CCCc2c(CCNS(=O)(=O)Cc3c(F)cccc3C(F)(F)F)n(C(c3ccccc3)c3ccccc3)c3ccc(Cl)cc23)cc1 [Example 14] . Its measured pIC50 is 7.52
